- Tested on: human SMAD7 mRNA
- assayOverview: Dose-dependent inhibition of human SMAD7 mRNA expression in Hep3B cells (Example 3, Study 1 and 2)
- Type: cell-based
- details: 20000.0 nM, electroporation, approximately 16 hours, Study 1
Strand notation (5' to 3'): a small letter for the sugar, then the base; units joined by * are phosphorothioate-linked, units joined directly phosphodiester-linked; [ ] holds rarer units or linkages, { } end groups; capitals alone tell only the bases. e = 2'-O-(2-methoxyethyl) (MOE); [5mC] = 5-methylcytosine; d = 2'-deoxy (DNA)
// values below are reported % inhibition of SMAD7 mRNA expression
Respond numerically; units are % and should not be typed.

>  <substance>
771822 (antisense e[5mC]*eA*e[5mC]*e[5mC]*eA*dA*dA*dA*d[5mC]*dA*dA*dG*dT*dG*dT*e[5mC]*eT*eA*e[5mC]*e[5mC]) [compound 771822]

>  <resultNumber>
45

$$$$
>  <substance>
771634 (antisense eT*eG*eA*e[5mC]*eG*dG*dA*d[5mC]*d[5mC]*dA*dA*dA*dT*d[5mC]*d[5mC]*eT*eT*e[5mC]*eT*eT) [compound 771634]

>  <resultNumber>
36

$$$$

// below: % inhibition of SMAD7 mRNA expression requested for another substance
Returns the measured % inhibition of SMAD7 mRNA expression for the input substance. Input: 771799 (antisense e[5mC]*eT*eT*e[5mC]*e[5mC]*dA*dA*d[5mC]*dA*d[5mC]*dA*dT*dG*d[5mC]*dT*e[5mC]*eT*eG*e[5mC]*eA) [compound 771799]
48

---

- Test system: human SMAD7 mRNA
- assayOverview: Dose-dependent inhibition of human SMAD7 mRNA expression in Hep3B cells (Example 3, Study 1 and 2)
- Format: cell-based
- details: 2220 nM, electroporation, approximately 16 hours, Study 2
Strand notation (5' to 3'): a small letter for the sugar, then the base; units joined by * are phosphorothioate-linked, units joined directly phosphodiester-linked; [ ] holds rarer units or linkages, { } end groups; capitals alone tell only the bases. k = constrained ethyl (cEt); [5mC] = 5-methylcytosine; d = 2'-deoxy (DNA)
measurementKind: % inhibition of SMAD7 mRNA expression (%)
Respond numerically; units are % and should not be typed.

>  <substance>
799674 (antisense kG*kA*kT*d[5mC]*dA*d[5mC]*dA*dA*dT*dT*d[5mC]*d[5mC]*dA*kA*kG*k[5mC]) [compound 799674]

>  <system>
human SMAD7 mRNA

>  <% inhibition of SMAD7 mRNA expression (%)>
35

$$$$
>  <substance>
772553 (antisense kT*k[5mC]*kT*dT*dG*dA*dG*d[5mC]*dA*d[5mC]*d[5mC]*dG*dA*kG*kT*kG) [compound 772553]

>  <system>
human SMAD7 mRNA

>  <% inhibition of SMAD7 mRNA expression (%)>
45

$$$$
>  <substance>
798824 (kG*kA*k[5mC]*dA*d[5mC]*dA*dG*dT*dA*dG*dA*dG*d[5mC]*k[5mC]*kT*k[5mC]; antisense) [compound 798824]

>  <system>
human SMAD7 mRNA

>  <% inhibition of SMAD7 mRNA expression (%)>
0

$$$$
>  <substance>
799534 (kG*kA*kG*dA*dA*dT*dG*dA*dA*dG*dT*d[5mC]*d[5mC]*kA*kG*kA; antisense) [compound 799534]

>  <system>
human SMAD7 mRNA

>  <% inhibition of SMAD7 mRNA expression (%)>
60

$$$$

Returns the measured % inhibition of SMAD7 mRNA expression for the input substance. Input: 799572 (kA*k[5mC]*k[5mC]*dA*dT*d[5mC]*dT*dA*dA*d[5mC]*dA*dA*d[5mC]*kA*kT*k[5mC]; antisense) [compound 799572]
35

Returns the measured % inhibition of SMAD7 mRNA expression for the input substance. Input: 790636 (kA*kG*k[5mC]*dA*dT*d[5mC]*dT*dG*dG*dA*d[5mC]*dA*dG*kT*k[5mC]*kA; antisense) [compound 790636]
93

Returns the measured % inhibition of SMAD7 mRNA expression for the input substance. Input: 772560 (antisense kT*kT*kG*d[5mC]*dA*d[5mC]*dA*dG*d[5mC]*dA*dG*dG*dA*kG*kG*kG) [compound 772560]
32

Returns the measured % inhibition of SMAD7 mRNA expression for the input substance. Input: 799851 (kA*kA*kG*dT*dG*dT*d[5mC]*d[5mC]*dA*dT*d[5mC]*dA*dA*kG*k[5mC]*kA; antisense) [compound 799851]
36

---

- Test system: human SMAD7 mRNA
- assayOverview: Dose-dependent inhibition of human SMAD7 mRNA expression in Hep3B cells (Example 3, Study 1 and 2)
- Assay type: cell-based
- details: 1250.0 nM, electroporation, approximately 16 hours, Study 1
Strand notation (5' to 3'): a small letter for the sugar, then the base; units joined by * are phosphorothioate-linked, units joined directly phosphodiester-linked; [ ] holds rarer units or linkages, { } end groups; capitals alone tell only the bases. e = 2'-O-(2-methoxyethyl) (MOE); [5mC] = 5-methylcytosine; d = 2'-deoxy (DNA)
Assign True whenever % inhibition of SMAD7 mRNA expression does not fall below 9%; assign False whenever it does.

Solved cases (3 shown):
>  <substance>
771414 (eT*e[5mC]*eG*eG*e[5mC]*dT*dG*dT*d[5mC]*d[5mC]*dG*dT*d[5mC]*dG*d[5mC]*e[5mC]*e[5mC]*e[5mC]*eT*eT; antisense) [compound 771414]

>  <system>
human SMAD7 mRNA

>  <group>
False

$$$$
>  <substance>
771797 (antisense eG*e[5mC]*eA*e[5mC]*eA*dG*dA*d[5mC]*dT*dG*d[5mC]*d[5mC]*dA*dA*dA*eT*e[5mC]*eA*e[5mC]*eA) [compound 771797]

>  <system>
human SMAD7 mRNA

>  <group>
False

$$$$
>  <substance>
771732 (antisense eG*eT*e[5mC]*eA*eT*dG*dT*dG*dA*dA*d[5mC]*dA*d[5mC]*dT*d[5mC]*eT*eT*eT*e[5mC]*eA) [compound 771732]

>  <system>
human SMAD7 mRNA

>  <group>
True

$$$$

We next turn to a different substance, shown below.
For this substance, is measured % inhibition of SMAD7 mRNA expression 9% or higher? 771770 (antisense e[5mC]*eT*eG*eT*eT*dG*dG*d[5mC]*dA*dG*dT*dG*d[5mC]*dT*d[5mC]*e[5mC]*e[5mC]*eA*e[5mC]*e[5mC]) [compound 771770]
True

---

// values below are reported Oligonucleotide concentration, Liver
- assayOverview: Oligonucleotide concentration in liver and colon by LC-MS/MS after subcutaneous administration in CD-1 mice (Example 6)
- Type: in vivo
- details: 50 mg/kg subcutaneously twice a week for 7 weeks, 48 hours after the last dose
Respond numerically; units are μg/g tissue and should not be typed.

Example substances with recorded Oligonucleotide concentration, Liver:
>  <substance>
830037 (antisense CTATTGGCTGATCTGG; 3-10-3 cEt gapmer, further chemistry not given here) [compound 830037]

>  <unitOfMeasure>
μg/g tissue

>  <Oligonucleotide concentration, Liver>
97

$$$$
>  <substance>
798781 (CGTAAGATTCACAGCA; 3-10-3 cEt gapmer, further chemistry not given here) [compound 798781]

>  <unitOfMeasure>
μg/g tissue

>  <Oligonucleotide concentration, Liver>
312

$$$$
>  <substance>
829994 (GGAGGCAGGGCCGCGA; 3-10-3 cEt gapmer, further chemistry not given here) [compound 829994]

>  <unitOfMeasure>
μg/g tissue

>  <Oligonucleotide concentration, Liver>
45

$$$$
>  <substance>
830025 (antisense TTTGTAAATCGAAAGC; 3-10-3 cEt gapmer, further chemistry not given here) [compound 830025]

>  <unitOfMeasure>
μg/g tissue

>  <Oligonucleotide concentration, Liver>
77

$$$$
>  <substance>
790615 (CCAATGAGAATGCTTC; 3-10-3 cEt gapmer, further chemistry not given here) [compound 790615]

>  <unitOfMeasure>
μg/g tissue

>  <Oligonucleotide concentration, Liver>
75

$$$$

// below: Oligonucleotide concentration, Liver requested for another substance
Returns the measured Oligonucleotide concentration, Liver for the input substance. Input: 830121 (AGAATCAAGCCCTGGC; 3-10-3 cEt gapmer, further chemistry not given here) [compound 830121]
50

---

- Tested on: human SMAD7 mRNA
- assayOverview: Antisense inhibition of human SMAD7 mRNA expression in Hep3B cells by 3-10-3 cEt gapmers, 10,000 nM, electroporation (Example 2)
- Format: cell-based
- details: SMAD7 mRNA, Hep3B cells, 10,000 nM antisense oligonucleotide, electroporation, approximately 24 hours, primer probe set RTS5062, relative to untreated control cells
- Method: Antisense oligonucleotides were designed to target human SMAD7 mRNA and were tested for their effects on SMAD7 mRNA expression in vitro. […] After a treatment period of approximately 24 hours, RNA was isolated from the cells and SMAD7 mRNA levels were measured by quantitative real-time PCR. […] SMAD7 mRNA levels were adjusted according to total RNA content, as measured by RIBOGREEN®. […]
Strand notation (5' to 3'): a small letter for the sugar, then the base; units joined by * are phosphorothioate-linked, units joined directly phosphodiester-linked; [ ] holds rarer units or linkages, { } end groups; capitals alone tell only the bases. k = constrained ethyl (cEt); [5mC] = 5-methylcytosine; d = 2'-deoxy (DNA)
measurementKind: % Inhibition (%)
Respond numerically; units are % and should not be typed.

Example substances with recorded % Inhibition:
>  <substance>
800776 (antisense kG*kA*kG*dG*d[5mC]*dA*d[5mC]*dG*d[5mC]*dG*dG*dT*dG*k[5mC]*kG*k[5mC]) [compound 800776]

>  <% Inhibition [%]>
36

$$$$
>  <substance>
772713 (kA*kT*kA*dA*d[5mC]*dA*d[5mC]*d[5mC]*d[5mC]*dA*dT*dA*dG*kA*kA*kA; antisense) [compound 772713]

>  <% Inhibition [%]>
24

$$$$
>  <substance>
772765 (kG*kA*kT*dT*dG*dG*d[5mC]*dA*dG*dG*dT*dT*dA*kA*kT*k[5mC]; antisense) [compound 772765]

>  <% Inhibition [%]>
35

$$$$
>  <substance>
829723 (antisense kG*k[5mC]*kA*dT*dG*d[5mC]*dG*d[5mC]*d[5mC]*dA*dG*dT*d[5mC]*kT*k[5mC]*k[5mC]) [compound 829723]

>  <% Inhibition [%]>
54

$$$$
>  <substance>
829788 (kT*k[5mC]*k[5mC]*dG*dA*dG*dG*dA*dA*dT*dG*d[5mC]*d[5mC]*kT*kG*kA; antisense) [compound 829788]

>  <% Inhibition [%]>
41

$$$$
>  <substance>
829770 (antisense k[5mC]*kA*kG*dT*d[5mC]*d[5mC]*dA*dG*dG*d[5mC]*dG*dG*d[5mC]*k[5mC]*kG*kG) [compound 829770]

>  <% Inhibition [%]>
42

$$$$

Returns the measured % Inhibition for the input substance. Input: 829726 (antisense k[5mC]*kT*k[5mC]*d[5mC]*dG*dT*dG*dG*d[5mC]*dA*dT*dG*d[5mC]*kG*k[5mC]*k[5mC]) [compound 829726]
41

Returns the measured % Inhibition for the input substance. Input: 772623 (kA*kG*kT*d[5mC]*d[5mC]*dG*dG*dG*dT*dT*dG*dT*d[5mC]*k[5mC]*kA*kG; antisense) [compound 772623]
42

Returns the measured % Inhibition for the input substance. Input: 772571 (antisense k[5mC]*k[5mC]*kG*dT*dA*dA*dG*dA*dT*dT*d[5mC]*dA*d[5mC]*kA*kG*k[5mC]) [compound 772571]
50

Returns the measured % Inhibition for the input substance. Input: 829772 (antisense kA*kG*kG*dA*d[5mC]*dG*dA*dG*dG*dG*d[5mC]*dG*dG*k[5mC]*kT*kG) [compound 829772]
52

Returns the measured % Inhibition for the input substance. Input: 829752 (antisense k[5mC]*k[5mC]*kG*d[5mC]*dA*dG*d[5mC]*dT*d[5mC]*dG*d[5mC]*d[5mC]*dT*k[5mC]*k[5mC]*kT) [compound 829752]
27

Returns the measured % Inhibition for the input substance. Input: 829736 (antisense kG*kG*kA*dG*d[5mC]*dG*dA*dA*d[5mC]*dA*dT*dG*dA*k[5mC]*k[5mC]*kT) [compound 829736]
41

Data provenance: patent US10517889B2
